These data points were gathered from patent US20250034201A1.

Would you kindly list microsomal CLint for each of these compounds?
# PROTOCOL: in vitro
# Type: in vitro ADME, human
# CONDITION DESCRIPTION: human, microsomes
# output: bare number, implied unit µL/min/mg

Entry CC(=O)[C@H]1CC[C@H]2[C@@H]3CC[C@H]4C[C@](C)(OC(=O)CCC(=O)OCCN(C)C)CC[C@]4(C)[C@H]3CC[C@]12C — recorded microsomal CLint = 108

Entry CC(=O)[C@H]1CC[C@H]2[C@@H]3CC[C@H]4C[C@](C)(OC(=O)CNC(C)(C)CO)CC[C@]4(C)[C@H]3CC[C@]12C — recorded microsomal CLint = 118

Entry CC(=O)[C@H]1CC[C@H]2[C@@H]3CC[C@H]4C[C@](C)(OC(=O)COC(=O)C(C)(C)OC(=O)CN(C)CCOC(=O)CN)CC[C@]4(C)[C@H]3CC[C@]12C — recorded microsomal CLint = 356

Entry CC(=O)[C@H]1CC[C@H]2[C@@H]3CC[C@H]4C[C@](C)(OC(=O)COC(=O)C(C)(C)OC(=O)CN(C)C)CC[C@]4(C)[C@H]3CC[C@]12C — recorded microsomal CLint = 58.1

Entry COCCN(CCOC(C)=O)CC(=O)OC(C)(C)C(=O)OCC(=O)O[C@]1(C)CC[C@@]2(C)[C@@H](CC[C@@H]3[C@@H]2CC[C@]2(C)[C@@H](C(C)=O)CC[C@@H]32)C1 — recorded microsomal CLint = 372

Entry COC(=O)[C@@H](C)NCC(=O)O[C@]1(C)CC[C@@]2(C)[C@@H](CC[C@@H]3[C@@H]2CC[C@]2(C)[C@@H](C(C)=O)CC[C@@H]32)C1 — recorded microsomal CLint = 303

Entry CC(=O)OCCCN(CCCOC(C)=O)CC(=O)OC(C)(C)C(=O)OCC(=O)O[C@]1(C)CC[C@@]2(C)[C@@H](CC[C@@H]3[C@@H]2CC[C@]2(C)[C@@H](C(C)=O)CC[C@@H]32)C1 — recorded microsomal CLint = 267
